Hello, the source for this data is patent US6800464B2, in case you need it.

- ASSAYED TARGET: UniProt:A0A1H1C375
- METHOD SUMMARY: Substrate specificity of the purified D-carbamoylase (relative conversion of carbamoyl substrates)
- Assay type: biochemical
- CONDITIONS USED: 30° C., 0.1 M potassium phosphate buffer pH 8.0; 20 mM isomer mixture or 10 mM pure isomer; D,L-Carbamoyl-phenylalanine set at 100% (2 U/mg)
With a cut-off of 40%, any Rel. act. strictly below it is called satisfied; any Rel. act. meeting it or above is called not satisfied.

NC(=O)N[C@H](Cc1c[nH]c2ccccc12)C(=O)O [D-Carbamoyl-tryptophan] :: not satisfied
CC(C)(C)C(NC(N)=O)C(=O)O (racemic) [D,L-Carbamoyl-tert-leucine] :: satisfied

We next turn to a different molecule, shown below.
Hi there! Is Rel. act. for NC(=O)NC(CO)C(=O)O (racemic) [D,L-Carbamoyl-serine] below 40%, do you know?
satisfied

* * *

Catalogue of Rel. act. readings, one per entry.
- ASSAYED TARGET: D-carbamoylase from Arthrobacter crystallopoietes DSM 20117 (Crystallibacter crystallopoietes, UniProt A0A1H1C375)
- Sequence (A0A1H1C375 entry or part of it): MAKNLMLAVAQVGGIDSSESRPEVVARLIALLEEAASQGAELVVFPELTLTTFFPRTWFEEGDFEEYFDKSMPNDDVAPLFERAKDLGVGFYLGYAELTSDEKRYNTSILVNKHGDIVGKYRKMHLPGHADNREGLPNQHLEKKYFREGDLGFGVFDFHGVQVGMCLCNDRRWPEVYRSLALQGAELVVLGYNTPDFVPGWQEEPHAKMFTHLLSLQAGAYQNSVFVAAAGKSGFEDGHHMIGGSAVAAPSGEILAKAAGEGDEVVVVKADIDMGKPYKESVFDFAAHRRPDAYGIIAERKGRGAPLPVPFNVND
- METHOD SUMMARY: Substrate specificity of the purified D-carbamoylase (relative conversion of carbamoyl substrates)
- Format: biochemical
- CONDITIONS USED: 30° C., 0.1 M potassium phosphate buffer pH 8.0; 20 mM isomer mixture or 10 mM pure isomer; D,L-Carbamoyl-phenylalanine set at 100% (2 U/mg)
Numbers only here, please. The scale is %.

CSCCC(NC(N)=O)C(=O)O (racemic) [D,L-Carbamoyl-methionine] :: 13
C[C@@H](NC(N)=O)C(=O)O [D-Carbamoyl-alanine] :: 510

Please turn your attention to the following entry.
Query: Rel. act.; subject: CC(C)C(NC(N)=O)C(=O)O (racemic) [D,L-Carbamoyl-valine]
31
